experiment: NCI Yeast Anticancer Drug Screen. Data for the mec2-1 strain (AID 157); settings: S. cerevisiae mec2-1 strain, at 1.2 µM, stronger effect = higher value
Compounds without any hit were thinned out: in the full panel of roughly 79,000, 15% have a hit.
growth inhibition values for the compounds below.

compound	unitAbbrev	growth inhibition
O=C(O)c1ccccc1/C=N/N=C1c2ccccc2-c2ccccc21	%	-2
CNC(=O)OCc1c(COC(=O)NC)c2n(c1C)-c1ccc(OC)cc1CCC2	%	-61
CCC1(OC(=O)CN2CCN(CCO)CC2)C(=O)OCc2c1cc1n(c2=O)Cc2cc3ccccc3nc2-1 (stereo unspecified)	%	-23
C[Si](C)(C)/C=C/CCNC(C#N)c1ccccc1 (stereo unspecified)	%	-21
CC(=O)SC(C[N+](=O)[O-])c1ccccc1 (stereo unspecified)	%	5
CN(C)c1ccc(C2CC(C)(O)Oc3cc4c(cc32)OCO4)cc1 (stereo unspecified)	%	-6
CCOc1ccc(NC(=O)C2=C(C)NC(C)=C(C(=O)Nc3ccc(OCC)cc3)C2c2cccc([N+](=O)[O-])c2)cc1	%	-1
COc1cc2ccnc(-c3c4ccccc4c(N)c4c(OC)c(OC)ccc34)c2cc1OC	%	-1
CN1C(=O)c2ccc3ccccc3c2C1=O	%	-5
COC1=C(N)C(=O)c2nc(-c3nc(C(=O)O)c(C)c(-c4ccc(OC)c(OC)c4O)c3N)ccc2C1=O	%	96
CC(C)(C)CC(C)(C)c1cc(O)c(O)c(CN2CCCCC2)c1	%	0
Cc1cc(=O)oc2c(C)c3occc(=O)c3cc12	%	-2
CC[n+]1oc(C(=O)c2ccc(Cl)cc2)c(-c2ccccc2)c1-c1ccccc1.[Cl][Fe]([Cl])([Cl])[Cl]	%	3
CC1=NOC(=O)/C1=C/c1ccc2c(c1)OCO2	%	0
CN(C)/C=C/c1nnc([N+](=O)[O-])s1	%	4
Nc1nc2ccc(NCc3ccc(C(=O)NC(CCC(=O)O)C(=O)O)cc3)cc2c(=O)[nH]1 (stereo unspecified)	%	-4
CC(C)=NOC(=O)Nc1ccc(Cl)cc1	%	-40
CCOC(=O)c1[nH]cc(C)c1-c1cccn1-c1ccc(Cl)cc1[N+](=O)[O-]	%	4
COc1cccc2c1C(=O)c1c(O)c3c(c(O)c1C2=O)C[C@@](O)(C(C)=O)C[C@@H]3OC1CC(OC(C)=O)C(OC(C)=O)C(C)O1 (stereo partly specified)	%	-64
Cn1c(-c2ccc(/C=N\N3CCN(/N=C/c4ccc(-c5c[n+]6ccccc6n5C)cc4)CC3)cc2)c[n+]2ccccc12	%	-8
CCOC(=O)[C@H]1Nc2ccc(OC)cc2C2c3ccccc3CC21 (stereo partly specified)	%	-48

====

test: NCI Yeast Anticancer Drug Screen. Data for the mgt1 strain (AID 153); conditions: S. cerevisiae mgt1 mutant growth inhibition; at 11.0 µM; stronger effect = higher value
About 79,000 compounds went through this panel and 15% of them were active in at least one assay; those are over-represented in the sample as a whole.
growth inhibition values for the compounds below.

compound	growth inhibition (%)
CCCC/C=C/C(C)(C(=O)OCC)C(=O)OCC	-4
Cc1cc(C(C)(C)C)c(OCCCN2CCOCC2)c(C(C)(C)C)c1	-9
Nc1nc(N)c2nc(CNc3ccc(C(=O)NC(CCC(=O)O)C(=O)O)cc3F)cnc2n1 (stereo not given)	15
CC[N+](CC)(CC)c1ccccc1	-6
O=C1Nc2ccccc2/C1=C/c1ccccc1	-8
CC[n+]1oc(C(=O)c2ccc(Cl)cc2)c(-c2ccccc2)c1-c1ccccc1.[Cl][Fe]([Cl])([Cl])[Cl]	-3
COC(=O)NC1C(C)OC(OC2C/C=C(/C)C3C=CC4C(OC5CC(OC6CC(O)C(OC7CC(O)C(OC)C(C)O7)C(C)O6)C(O)C(C)O5)C(C)CC(C)C4C3(C)/C(O)=C3\C(=O)OC4(CC(C)C(CO)=CC4/C=C\2C)C3=O)CC1(C)[N+](=O)[O-] (stereo not given)	-1
COC(=O)Nc1cn2ccc(C(Cl)=C(Cl)Cl)cc2n1	-29
O=[N+]([O-])c1cc(Cl)cnc1Br	4
C[C](C)(C)[Ge]([O][Ge]([c]1ccccc1)[c]1ccccc1)([O][Ge]([c]1ccccc1)[c]1ccccc1)[C](C)(C)C	44
O=C1NC(=O)c2ccc([N+](=O)[O-])c3cccc1c23	20
O=C1C=C(Cl)C(=O)C(c2ccc(Cl)cc2)=C1	82
CC(O)=NC(Cc1ccc2ccccc2c1)C(O)=NC(Cc1ccc(Cl)cc1)C(O)=NC(Cc1c[nH]c2ccccc12)C(O)=NC(CO)C(O)=NC(Cc1ccc(O)cc1)C(O)=NC(CCCN=C(N)N)C(O)=NC(CC(C)C)C(O)=NC(CCCN=C(N)N)C(=O)N1CCCC1C(O)=NC(C)C(=N)O (stereo not given)	-4
Oc1ccc(SCc2ccc(NCc3ccccc3)cc2)cc1	22
CCC(C)OC(=O)Nc1ccc(C)c(NC(=O)OC(C)CC)c1 (stereo not given)	-1
Cc1csc(=S)n1OC(=O)NC1CCCCC1	100
Cc1ccc([N+]2=NC(c3ccccc3)=NN(c3ccccc3)C2)cc1	9
CN1CCN(C(=O)/C=C/C(=O)c2ccccc2)CC1	34
Cc1nc2ccc(N=NN(C)C)cc2[nH]1	15
Cc1nc2c(Br)cc(Br)cc2c(=O)n1-c1ccccc1NC1OCC(O)C(O)C1O (stereo not given)	20
O=C1C(=O)c2ccccc2C(O)=C1C(C1=C(O)c2ccccc2C(=O)C1=O)c1ccc(Cl)cc1	64
Oc1cccc2cc(Cl)cnc12	3
CCN(CC)CCOc1cc(C)c2cc(Cc3ccccc3)ccc2n1	10
CCCCC/C(=C(\C#N)C(=O)OCC)c1ccccc1	-3
COc1cccc2c1C(=O)c1c(O)c3c(c(O)c1C2=O)C[C@@](O)(C(C)=O)C[C@@H]3OC1CC(OC(C)=O)C(OC(C)=O)C(C)O1 (stereo not given in full)	-33
CN(C)c1ccc(N=Nc2ccncc2)cc1	31
Cc1c(-c2ccccn2)ccc2ccccc12	-3
c1ccc2c(c1)sc1c3cnccc3ccc21	0
Oc1ccc(-c2nc(-c3ccc(F)cc3)c(-c3ccc4ccccc4n3)[nH]2)cc1	81
CC(C)c1ccc(NC(=S)NC(=O)c2ccccc2)cc1	27
CCCCOP(=O)(CCCP(=O)(OCCCC)OCCCC)OCCCC	-1
COc1cccc2c1C(=O)c1c(O)c3c(c(O)c1C2=O)CC(O)(C(O)CO)CC3OC1CC(N2CCOCC2)C(O)C(C)O1 (stereo not given)	97
O=C1c2ccccc2C(=O)N1CCCC(=O)n1cc(F)c(=O)[nH]c1=O	47
C[CH2][Sn]([CH2]C)([O]C(=O)C(N)Cc1ccccc1)[O]C(=O)C(N)Cc1ccccc1 (stereo not given)	1
CCCOC(=O)C(F)C(Br)C(=O)OCCC (stereo not given)	97
COC(=O)C1=C(C(=O)OC)C(C(=O)OC)C(C(=O)OC)C(C(=O)OC)(C(=O)OC)C(C(=O)OC)=C1C(=O)OC (stereo not given)	-17
C=C(C(=C)n1nnc(C(=O)OC)c1C(=O)OC)n1nnc(C(=O)OC)c1C(=O)OC	0
CC1CC[C@]2(C(=O)O)CCC3(C)C(=CC(=O)C4[C@@]5(C)CCC(=O)C(C)(C)C5CC[C@]43C)[C@@H]2[C@H]1C (stereo not given in full)	88
CCOc1c(N=Nc2ccccc2OC)c(C)nn1C(=S)S	3
CCCCCCCCCCCC(O)S(=O)(=O)O (stereo not given)	-2

Data origin: PubChem BioAssay (NCI)
